Just for reference, ChEMBL document CHEMBL1921729 is where these values come from.

- target: UniProt P11838
- Sequence (P11838 whole entry): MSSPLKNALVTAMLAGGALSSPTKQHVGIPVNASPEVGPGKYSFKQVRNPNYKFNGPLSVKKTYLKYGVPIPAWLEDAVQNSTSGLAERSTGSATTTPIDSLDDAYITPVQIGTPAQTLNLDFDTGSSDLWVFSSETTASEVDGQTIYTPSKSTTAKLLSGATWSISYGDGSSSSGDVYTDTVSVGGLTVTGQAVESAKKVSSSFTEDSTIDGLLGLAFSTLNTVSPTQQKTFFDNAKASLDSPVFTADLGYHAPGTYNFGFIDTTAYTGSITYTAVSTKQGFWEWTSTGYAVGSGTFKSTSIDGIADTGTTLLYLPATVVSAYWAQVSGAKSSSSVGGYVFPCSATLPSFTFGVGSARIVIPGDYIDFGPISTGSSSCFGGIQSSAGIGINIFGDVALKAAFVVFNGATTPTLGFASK
- experiment: Inhibition of Cryphonectria parasitica endothiapepsin using Abz-Thr-Ile-Nle-p-nitro-Phe-Gln-Arg-NH2 as substrate at 1 mM by fluorescence spectrophotometry analysis
metric.name: inhibition (%)

// known answers, use as guide
# input # get_value(readout='inhibition', item= c1cc(CNc2ccc3c(c2)OCCO3)ccn1 )
# output 50

# input # get_value(readout='inhibition', item= O=C(Cc1ccccc1)Nn1cnc2ccccc21 )
# output 51

# input # get_value(readout='inhibition', item= O=C(CN1CCCCC1)Nc1ccc2c(c1)OCO2 )
# output 49

# input # get_value(readout='inhibition', item= OC(COCc1ccccc1F)CN1CCCC1 (stereo unspecified) )
# output 87

P = N=C(N)SCc1ccccc1Cl
Q = N=C(N)c1ccc(C(F)(F)F)cc1
# input Which entry shows the lesser value of inhibition here, P or Q ? Use the label to indicate which entry you chose.
# output Q
(Q: 45%, P: 93%)
